meta.source: the kinase profiling compilation of Christmann-Franck et al. (2016)

EXPERIMENTAL SYSTEM: ALK (human) (UniProt Q9UM73)
Sequence (Q9UM73 whole entry, looked up): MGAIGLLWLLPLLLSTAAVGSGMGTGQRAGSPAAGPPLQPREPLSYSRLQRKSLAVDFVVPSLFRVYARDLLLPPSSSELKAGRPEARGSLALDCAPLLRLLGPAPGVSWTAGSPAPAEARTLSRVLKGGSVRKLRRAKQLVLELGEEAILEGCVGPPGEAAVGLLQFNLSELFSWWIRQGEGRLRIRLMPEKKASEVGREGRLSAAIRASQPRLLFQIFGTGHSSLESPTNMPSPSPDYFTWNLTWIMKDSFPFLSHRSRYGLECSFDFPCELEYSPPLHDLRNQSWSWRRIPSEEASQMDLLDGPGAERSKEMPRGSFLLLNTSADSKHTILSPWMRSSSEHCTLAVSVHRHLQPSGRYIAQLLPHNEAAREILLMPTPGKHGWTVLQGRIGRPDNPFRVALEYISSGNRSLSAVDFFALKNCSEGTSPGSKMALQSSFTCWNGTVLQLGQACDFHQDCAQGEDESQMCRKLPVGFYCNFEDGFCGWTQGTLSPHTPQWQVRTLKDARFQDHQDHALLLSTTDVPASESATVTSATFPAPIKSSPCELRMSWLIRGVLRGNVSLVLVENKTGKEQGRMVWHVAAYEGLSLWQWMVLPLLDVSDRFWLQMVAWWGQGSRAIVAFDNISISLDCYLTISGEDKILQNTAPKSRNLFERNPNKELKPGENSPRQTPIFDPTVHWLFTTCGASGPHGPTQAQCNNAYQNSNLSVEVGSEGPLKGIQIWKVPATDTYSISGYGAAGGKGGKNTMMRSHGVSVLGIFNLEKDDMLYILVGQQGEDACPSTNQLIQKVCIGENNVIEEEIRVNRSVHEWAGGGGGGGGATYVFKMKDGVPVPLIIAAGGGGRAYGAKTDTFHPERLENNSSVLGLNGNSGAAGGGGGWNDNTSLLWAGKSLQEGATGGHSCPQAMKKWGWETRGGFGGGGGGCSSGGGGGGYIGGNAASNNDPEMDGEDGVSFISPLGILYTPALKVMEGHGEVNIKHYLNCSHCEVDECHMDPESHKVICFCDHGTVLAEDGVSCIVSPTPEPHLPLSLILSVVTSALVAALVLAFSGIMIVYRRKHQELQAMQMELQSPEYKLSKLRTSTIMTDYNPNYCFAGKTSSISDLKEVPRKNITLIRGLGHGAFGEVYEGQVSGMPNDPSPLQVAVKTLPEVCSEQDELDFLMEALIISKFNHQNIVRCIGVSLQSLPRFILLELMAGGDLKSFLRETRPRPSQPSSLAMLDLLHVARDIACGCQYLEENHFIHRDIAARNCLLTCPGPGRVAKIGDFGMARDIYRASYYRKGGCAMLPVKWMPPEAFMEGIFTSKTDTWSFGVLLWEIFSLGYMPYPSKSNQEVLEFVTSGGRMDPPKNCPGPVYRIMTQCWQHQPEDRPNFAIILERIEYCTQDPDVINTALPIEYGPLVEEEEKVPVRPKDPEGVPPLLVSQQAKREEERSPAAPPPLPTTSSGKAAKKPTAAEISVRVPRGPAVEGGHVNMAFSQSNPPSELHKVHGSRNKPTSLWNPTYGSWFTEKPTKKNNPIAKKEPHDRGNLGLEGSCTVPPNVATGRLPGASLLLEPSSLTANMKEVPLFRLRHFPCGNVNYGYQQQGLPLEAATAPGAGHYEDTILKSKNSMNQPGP
PROCEDURE TEXT: radiometric filter-binding kinase assay, Kinase HotSpot
EXPERIMENTAL CONTEXT: compound 0.5 µM; ATP 10 µM
Hi there, I'd appreciate the recorded residual activity for every entry that follows.
Note: unit % is implicit; provide only the numeric part.

Can you share its residual activity? I mean this compound: O=C1NC(=O)C(c2c[nH]c3ccccc23)=C1c1c[nH]c2ccccc12
95.7

Can you share its residual activity? I mean this compound: CN([C@@H](Cc1ccc(OS(=O)(=O)c2cccc3cnccc23)cc1)C(=O)N1CCN(c2ccccc2)CC1)S(=O)(=O)c1cccc2cnccc12
96.5

Can you share its residual activity? I mean this compound: O=C(O)/C=C/c1cc(Br)c(Br)c(Br)c1Br
98.6

Can you share its residual activity? I mean this compound: Nc1nnc2[nH]c3ccccc3nc1-2
96.7

Can you share its residual activity? I mean this compound: Cn1cnc2cc3c(Nc4cccc(Br)c4)ncnc3cc21
92.4

Can you share its residual activity? I mean this compound: CC(=O)O/N=C1\C(=C2\C(=O)Nc3cc(Br)ccc32)Nc2ccccc21
86.7

Can you share its residual activity? I mean this compound: CC(C)c1nn(-c2c(Cl)cccc2Cl)c2nc(Cc3ccc(OCCO)cc3)nc(O)c12
103

Can you share its residual activity? I mean this compound: COc1cc2ncc(-c3ccccc3)nc2cc1OC
94.1

Can you share its residual activity? I mean this compound: Cc1nc2cc3nc(-c4cccs4)cnc3cc2n1C
99.8

Can you share its residual activity? I mean this compound: CCN(CC)CCCCN1c2ccccc2Oc2ccc(Cl)cc21
106

Can you share its residual activity? I mean this compound: COc1ccc(OC)c2c(=S)c3ccccc3[nH]c12
105

Can you share its residual activity? I mean this compound: CN(C)C[C@H]1CCn2c(c(C3=C(c4cn(C)c5ccccc45)C(=O)NC3=O)c3ccccc32)C1
99.6

Can you share its residual activity? I mean this compound: O=C(CCCc1ccc(-c2ccccc2F)cc1)Nc1ccc(O)cc1
97

Can you share its residual activity? I mean this compound: O=C1Cc2c([nH]c3ccc(Br)cc23)-c2ccccc2N1
90.8

Can you share its residual activity? I mean this compound: O=C1NC(=O)C(c2cn(CCCO)c3ncccc23)=C1c1cnccn1
105

Can you share its residual activity? I mean this compound: O=C1NC(=O)/C(=C\c2ccc3nccnc3c2)S1
93.3

Can you share its residual activity? I mean this compound: Nc1nccc(-c2c(-c3ccc(F)cc3)ncn2C2CCNCC2)n1
102

Can you share its residual activity? I mean this compound: Cn1nc2c3c(cccc31)C(=O)c1ccccc1-2
87.4

Can you share its residual activity? I mean this compound: CC(C)[C@H](CO)Nc1nc(Nc2cc(N)cc(Cl)c2)c2ncn(C(C)C)c2n1
79.6

Can you share its residual activity? I mean this compound: COc1ccc(CNC(=O)Nc2ncc([N+](=O)[O-])s2)cc1
100

Can you share its residual activity? I mean this compound: CCn1cnc2c(Nc3cccc(Cl)c3)nc(N[C@@H]3CCCC[C@@H]3N)nc21
92.3
